meta.source: PubChem BioAssay (NCI)

Catalogue of molecules with associated growth
Tested on: SK-MEL-5 melanoma
Assay: NCI-60 one-dose screen, 48 h (100 = growth as untreated, 0 = no growth, -100 = all killed)
Settings: 10 µM unless noted
The panel holds about 83,000 compounds, 20% with a hit somewhere; the sample as a whole holds those more often.
Readout Type: growth (%)

| Molecule | Readout Type | Assay Result |
| --- | --- | --- |
| Nc1cc(F)ccc1NC(=O)c1ccc(NC(=O)C/C=C/c2cccnc2)cn1 | growth | -58.1 |
| COc1ccc(S(=O)(=O)NCCCNc2nccc(-n3cnc4ccccc43)n2)cc1 | growth | 70.1 |
| N#Cc1c(-c2cccs2)cc(-c2cnccn2)nc1SCC(=O)NNC(=S)Nc1ccc(F)cc1 | growth | 89.5 |
| Cn1c(SC(C(=O)Nc2ccc(F)cc2)c2ccccc2)nc2ccccc2c1=O (centres undefined) | growth | 104 |
| NS(=O)(=O)c1ccc(Nc2nc(N/N=C/c3ccc(C(F)(F)F)cc3)nc(Nc3ccccc3)n2)cc1 | growth | 34.5 |
| O=S(=O)(Nc1cc(Cl)c(F)c(Cl)c1)c1ccc(-c2cnc(C3CC3)o2)cc1 | growth | 28.8 |
| O=[N+]([O-])c1ccc(-c2nnc(SCc3ccc(O)c4ncccc34)n2-c2ccccc2)cc1 | growth | 1.12 |
| Cc1cc(F)cc(NS(=O)(=O)c2ccc(-c3cnc(C4CC4)o3)cc2)c1 | growth | 21.5 |
| COc1cc(/C=N/n2cnc3oc(-c4ccccc4)cc3c2=N)cc(CN2CCCCC2)c1O | growth | -89.7 |

* * *

Test system: SK-OV-3 ovarian
Test: NCI-60 one-dose screen, 48 h (100 = growth as untreated, 0 = no growth, -100 = all killed)
Details: 10 µM unless noted
This is part of a sample that, as a whole, favours compounds with a hit. Of some 83,000 tested, about 20% had one in any assay. Active and inactive are the calls of the source. How the source made its calls: active means growth percent below 10; inactive means the rest.
Below, each entry is listed alongside its reported growth.

| Molecule | Experimental Target | growth |
| --- | --- | --- |
| C/C(=C(/c1ccc(O)cc1)c1ccc(OCCN2CCCC2)cc1)c1ccc(Cl)cc1 | SK-OV-3 ovarian | 76.7% (inactive) |
| N#Cc1c(NC(=O)c2ccccc2C(F)(F)F)sc2c1CCC(=O)C2 | SK-OV-3 ovarian | 91.1% (inactive) |
| CC(=O)Oc1ccc(CCN2C(=O)CSC2=S)cc1 | SK-OV-3 ovarian | 113% (inactive) |
| O=C1c2c(c3c4cccnc4[nH]c3c3ccc4ccccc4c23)C(=O)N1CCN1CCNCC1 | SK-OV-3 ovarian | 101% (inactive) |
| CC(C)(C)CC(C)(C)n1nnnc1C(Nc1ccccc1)c1cc2cccc3ccc4cccc1c4c32 (configuration not stated) | SK-OV-3 ovarian | 87.1% (inactive) |
| Cc1ccc(C2CC(c3ccc(Nc4nc(NCCO)nc(Nc5ccc(Cl)cc5)n4)cc3)=Nc3c(N)nc(N)nc3N2)cc1 (configuration not stated) | SK-OV-3 ovarian | 114% (inactive) |
| C#C[C@]1(O)CC[C@H]2[C@@H]3CC=C4c5sc(Nc6cc(OC)ccc6OC)nc5CC[C@]4(C)[C@H]3CC[C@@]21C | SK-OV-3 ovarian | 5.82% (active) |
| C=CCn1c(SCC(=O)Nc2cccc(C(=O)/C=C/c3ccccc3Cl)c2)nc2ccccc2c1=O | SK-OV-3 ovarian | 119% (inactive) |
| COc1ccc(C(=O)n2cc(C=O)c3ccccc32)cc1 | SK-OV-3 ovarian | 133% (inactive) |
| COc1ccc(Cn2cc3c(c2-c2cc(OC)c(OC)c(OC)c2)CCCc2cnoc2-3)cc1N | SK-OV-3 ovarian | 65.6% (inactive) |
| CCOC(=O)C1=C(C)N=C2Sc3ccccc3N2C1c1ccccc1 (configuration not stated) | SK-OV-3 ovarian | 125% (inactive) |
| Cc1[nH]nc2ccc(-c3nc4cnc(N5CCN(C)CC5)cn4c3Nc3ccc(F)cc3Br)cc12 | SK-OV-3 ovarian | 97.4% (inactive) |
| COc1cc(/C=N/n2cnc3oc(-c4ccccc4)cc3c2=N)cc(CN2CCCCC2)c1O | SK-OV-3 ovarian | 105% (inactive) |
| COc1ccc(Cn2cc3c(c2-c2ccccc2)CCCc2cnoc2-3)cc1[N+](=O)[O-] | SK-OV-3 ovarian | 74.8% (inactive) |
| COC(=O)Nc1ccc(-c2nc(-c3cccc(O)c3)c(-c3ccnc(Br)c3)[nH]2)cc1 | SK-OV-3 ovarian | 79.3% (inactive) |
| O=C1/C(=C/c2ccccc2[N+](=O)[O-])Oc2ccc(O)cc21 | SK-OV-3 ovarian | 84% (inactive) |
| COc1ccc(-c2no[n+]([O-])c2Nc2ccccc2Br)cc1 | SK-OV-3 ovarian | 94.3% (inactive) |
| CCNC(=NCCCN(C)C)N/C(N)=N/c1nc2ccccc2s1 | SK-OV-3 ovarian | 89.9% (inactive) |
| C=C(C)C(=O)O[C@H]1C[C@@]2(C)OC(=CC2=O)/C(C)=C\[C@H]2OC(=O)C(=C)[C@H]12 | SK-OV-3 ovarian | 77% (inactive) |
| COc1ccc2oc3c4[nH]c5ccccc5c4c4c(c3c2c1)C(=O)N(O)C4=O | SK-OV-3 ovarian | 98.9% (inactive) |
| CC(C)N=C(N/C(N)=N/c1nc2ccccc2s1)NC(C)C | SK-OV-3 ovarian | 83.4% (inactive) |
| Cc1ccc(/C=C/c2nn3c(-c4ccco4)nnc3s2)cc1 | SK-OV-3 ovarian | 115% (inactive) |
| CNC(=O)c1cc(Oc2ccc3nc(NC(=O)c4cc(C)cc(C)c4)sc3c2)ccn1 | SK-OV-3 ovarian | 97.4% (inactive) |
| Nc1c(C(=O)c2ccccc2)sc2nc(-c3cnccn3)cc(-c3cccs3)c12 | SK-OV-3 ovarian | 103% (inactive) |
| Nc1nc(-c2cccc([N+](=O)[O-])c2)c(N=Nc2ccccc2Cl)s1 | SK-OV-3 ovarian | 99.5% (inactive) |
| CNC(=O)c1cc(N2CCc3cc(NC(=O)Nc4ccc(Cl)c(Cl)c4)ccc32)ccn1 | SK-OV-3 ovarian | 88.8% (inactive) |
| O=C1c2c(O)cc(O)cc2O[C@@H](c2ccc(O)cc2)[C@@H]1c1c(O)cc(O)c2c(=O)cc(-c3ccc(O)c(O)c3)oc12 | SK-OV-3 ovarian | 86.5% (inactive) |
| O=C(Nc1cccc(Cl)c1)Nc1nc2ccc(-c3cccc4ccccc34)cc2s1 | SK-OV-3 ovarian | 66.8% (inactive) |
| COc1ccc(NC(=O)[C@H](C)N)cc1C(=O)Nc1cccc(-c2cc(=O)c3c(OC)c(OC)c(OC)cc3o2)c1 | SK-OV-3 ovarian | 115% (inactive) |
| COC(=O)c1c(C(=O)OC)c2n(CC(=O)Nc3cccc4cccnc34)c3ccccc3n2c1C(=O)c1ccc(C)cc1 | SK-OV-3 ovarian | 119% (inactive) |
| O=C(COc1ccc(C2SCC(=O)N2c2ccc(F)cc2)cc1)c1ccccc1 (configuration not stated) | SK-OV-3 ovarian | 112% (inactive) |
| COc1ccc(NS(=O)(=O)c2ccc(-c3cnc(C4CC4)o3)cc2)cc1Cl | SK-OV-3 ovarian | 60% (inactive) |
| CC(C)=CCc1c(O)c(CC=C(C)C)c2c(c1O)C(=O)C1=C[C@@H]3C[C@H]4C(C)(C)O[C@@](C/C=C(\C)C(=O)O)(C3=O)[C@@]14O2 | SK-OV-3 ovarian | 42.4% (inactive) |
| Cc1cc(Cl)cc(NS(=O)(=O)c2ccc(-c3cnc(C4CC4)o3)cc2)c1 | SK-OV-3 ovarian | 72.8% (inactive) |
| CCc1ccc(NC(=O)N[C@@H](Cc2cccc(C)c2)C(=O)N[C@@H]2C(=O)N3CCC[C@H]3C(=O)N3CCCC[C@H]3C(=O)N[C@@H](CO)C(=O)N3C[C@H](C)C[C@H]3C(=O)O[C@H]2C)c(F)c1 | SK-OV-3 ovarian | 22.1% (inactive) |
| Cc1cc(O)c2c(c1)C(=O)C(c1c(C)cc3c(c1O)C(=O)C=CC3=O)=CC2=O | SK-OV-3 ovarian | 89.2% (inactive) |
| O=C(NCCNc1cc(-c2cn(-c3ccccc3)nc2-c2cccc(O)c2)ccn1)Nc1ccc(Cl)c(C(F)(F)F)c1 | SK-OV-3 ovarian | 94.6% (inactive) |

* * *

Tested on: NCI-H226 lung
Experiment: NCI-60 one-dose screen, 48 h
Details: 10 µM unless noted
About 83,000 compounds went through this panel and 20% of them were active in at least one assay; those are over-represented in the sample as a whole. Activity calls are given as the source filed them. The calls were made as follows: active = growth percent below 10; inactive = the rest.
Classes used: active, inactive

| Compound | Assigned Class |
| --- | --- |
| COc1cc(C2CC(c3ccc(Nc4nc(NCCO)nc(Nc5ccc(Cl)cc5)n4)cc3)=Nc3c(N)nc(N)nc3N2)cc(OC)c1OC (stereo not given) | inactive |
| O=[N+]([O-])c1ccc(-c2nnc(SCc3ccc(O)c4ncccc34)o2)cc1 | inactive |
| COc1ccc(CN2C(=O)/C(=C/c3nc(CO)cs3)SC2=S)cc1 | inactive |
| C#C[C@]1(O)CC[C@H]2[C@@H]3CC=C4c5sc(Nc6ccncc6)nc5CC[C@]4(C)[C@H]3CC[C@@]21C | active |
| CS(=O)c1nccc(-c2c(-c3ccc(F)c(OCc4ccc(F)cc4)c3)nc3sccn23)n1 (stereo not given) | inactive |
| COc1ccc(Oc2ccc(C3CC(c4cc(OC)c(OC)c(OC)c4)=NN3C(C)=O)cc2)cc1 (stereo not given) | inactive |
| COc1cc2c3c(n(CCCNC4CCC4)c(=O)c2cc1OC)-c1cc2c(cc1C3=O)OCO2 | inactive |
| Cc1cc(=O)n2nc(-c3cn(C)c4ccc(Cl)cc34)sc2n1 | inactive |
| CCn1c2ccc(/C=N/OCCCN(C)C)cc2c2cc(/C=N/OCCCN(C)C)ccc21 | inactive |
| CCN1C(=O)N(CC)C2SC(N/N=C/c3ccc(OC)cc3)=NC21 (stereo not given) | inactive |
| CC(=O)NC(C)(C)C(=O)N1CCC[C@H]1C(=O)NC(C)(C)C(=O)N[C@@H](C)C(=O)NC(C)(C)C(=O)NC(C)(C)C(=O)N[C@@H](CCC(N)=O)C(=O)NC(C)(C)C(=O)N[C@H](C(=O)NC(C)(C)C(=O)NCC(=O)N[C@@H](CC(C)C)C(=O)NC(C)(C)C(=O)N1CCC[C@H]1C(=O)N[C@H](C(=O)NC(C)(C)C(=O)NC(C)(C)C(=O)N[C@@H](CCC(N)=O)C(=O)N[C@@H](CCC(N)=O)C(=O)N[C@H](CO)Cc1ccccc1)C(C)C)C(C)C | inactive |
| C=C(C)[C@@H]1CC[C@]2(C(=O)ON)CC[C@]3(C)[C@H](CC[C@@H]4[C@@]5(C)C/C(=C/c6ccc(Br)cc6)C(=O)C(C)(C)[C@@H]5CC[C@]43C)[C@@H]12 | inactive |
| C=CCn1c(SCC(=O)Nc2cccc(C(=O)/C=C/c3ccc(OC)c(OC)c3)c2)nc2ccccc2c1=O | inactive |
| O=C(COc1ccc(C2SCC(=O)N2c2ccc(F)cc2)cc1)c1ccccc1 (stereo not given) | inactive |
| O=S(=O)(Nc1cc(Cl)cc(Cl)c1)c1ccc(-c2cnc(C3CC3)o2)cc1 | inactive |
